Tested on: Escherichia coli
test.name: Antimicrobial activity against Escherichia coli DH5alpha expressing SHV-84
Type: functional
readout.name: log10(MIC) (log10 of the value in µg/mL)
Units before log transform: µg/mL; reported quantity: MIC; transform: log10.

Examples from the recorded data:
CCN1CCN(C(=O)N[C@@H](C(=O)N[C@@H]2C(=O)N3[C@@H]2SC(C)(C)[C@@H]3C(=O)O)c2ccccc2)C(=O)C1=O [PIPERACILLIN]    2.11
CC1(C)S[C@@H]2[C@H](NC(=O)[C@H](N)c3ccc(O)cc3)C(=O)N2[C@H]1C(=O)O [AMOXICILLIN]    3.31
CC(C)(O/N=C(\C(=O)N[C@@H]1C(=O)N2C(C(=O)[O-])=C(C[n+]3ccccc3)CS[C@H]12)c1csc(N)n1)C(=O)O [CEFTAZIDIME]    -0.60
CC(=O)OCC1=C(C(=O)O)N2C(=O)[C@@H](NC(=O)Cc3cccs3)[C@H]2SC1 [CEPHALOTHIN]    0.90

I am curious: what log10(MIC) value has been reported for CO/N=C(\C(=O)N[C@@H]1C(=O)N2C(C(=O)O)=C(COC(C)=O)CS[C@H]12)c1csc(N)n1 [CEFOTAXIME] ? -1.22

I am curious: what log10(MIC) value has been reported for C[C@H]1[C@H](NC(=O)/C(=N\OC(C)(C)C(=O)O)c2csc(N)n2)C(=O)N1S(=O)(=O)O [AZTREONAM] ? -1.52

----------
Test system: Escherichia coli
test.name: Ratio of Kcat to Km in Escherichia coli beta-lactamase SHV-84
readout.name: log10 of kcat/Km (log10 of the value in M⁻¹ s⁻¹)
Units before log transform: M⁻¹ s⁻¹; reported quantity: kcat/Km; transform: log10.

Examples from the recorded data:
CC1(C)S[C@@H]2[C@H](NC(=O)[C@H](N)c3ccc(O)cc3)C(=O)N2[C@H]1C(=O)O [AMOXICILLIN]    7.02
CCN1CCN(C(=O)N[C@@H](C(=O)N[C@@H]2C(=O)N3[C@@H]2SC(C)(C)[C@@H]3C(=O)O)c2ccccc2)C(=O)C1=O [PIPERACILLIN]    6.78

I am curious: what log10 of kcat/Km value has been reported for CC(=O)OCC1=C(C(=O)O)N2C(=O)[C@@H](NC(=O)Cc3cccs3)[C@H]2SC1 [CEPHALOTHIN] ? 4.30

I am curious: what log10 of kcat/Km value has been reported for `CC1(C)S[C@@H]2[C@H](NC(=O)Cc3ccccc3)C(=O)N2[C@H]1C(=O)O` ? 6.98

I am curious: what log10 of kcat/Km value has been reported for CC1(C)S[C@@H]2[C@H](NC(=O)[C@H](C(=O)O)c3ccsc3)C(=O)N2[C@H]1C(=O)O [TICARCILLIN] ? 6.40

----------
Items are presented alongside their recorded log10(kcat).
Test system: Escherichia coli
test.name: Activity at Escherichia coli beta-lactamase SHV-84
Units before log transform: s⁻¹; reported quantity: kcat; transform: log10.

Examples from the recorded data:
CC(=O)OCC1=C(C(=O)O)N2C(=O)[C@@H](NC(=O)Cc3cccs3)[C@H]2SC1 [CEPHALOTHIN]    0.60
CC1(C)S[C@@H]2[C@H](NC(=O)Cc3ccccc3)C(=O)N2[C@H]1C(=O)O    2.79
CC1(C)S[C@@H]2[C@H](NC(=O)[C@H](C(=O)O)c3ccsc3)C(=O)N2[C@H]1C(=O)O [TICARCILLIN]    2.33
CCN1CCN(C(=O)N[C@@H](C(=O)N[C@@H]2C(=O)N3[C@@H]2SC(C)(C)[C@@H]3C(=O)O)c2ccccc2)C(=O)C1=O [PIPERACILLIN]    2.61

Okay, next one:
I am curious: what log10(kcat) value has been reported for CC1(C)S[C@@H]2[C@H](NC(=O)[C@H](N)c3ccc(O)cc3)C(=O)N2[C@H]1C(=O)O [AMOXICILLIN] ? 3.02

----------
System: Escherichia coli
test.name: Activity at Escherichia coli beta-lactamase SHV-84
Items are presented alongside their recorded Km.
Give the value in µM but do not write µM after it.

I am curious: what Km value has been reported for CCN1CCN(C(=O)N[C@@H](C(=O)N[C@@H]2C(=O)N3[C@@H]2SC(C)(C)[C@@H]3C(=O)O)c2ccccc2)C(=O)C1=O [PIPERACILLIN] ? 68

I am curious: what Km value has been reported for CC1(C)S[C@@H]2[C@H](NC(=O)[C@H](C(=O)O)c3ccsc3)C(=O)N2[C@H]1C(=O)O [TICARCILLIN] ? 83

I am curious: what Km value has been reported for CC(=O)OCC1=C(C(=O)O)N2C(=O)[C@@H](NC(=O)Cc3cccs3)[C@H]2SC1 [CEPHALOTHIN] ? 169

I am curious: what Km value has been reported for `CC1(C)S[C@@H]2[C@H](NC(=O)Cc3ccccc3)C(=O)N2[C@H]1C(=O)O` ? 64

I am curious: what Km value has been reported for CC1(C)S[C@@H]2[C@H](NC(=O)[C@H](N)c3ccc(O)cc3)C(=O)N2[C@H]1C(=O)O [AMOXICILLIN] ? 101
